Test system: SNB-19 CNS
Assay: NCI tumour cell line growth inhibition, 48 h
EXPERIMENTAL ENDPOINT: TGI

Request the reported TGI associated with "CC[C@@H]1CC[C@@H]2[C@H](CC[C@]3(C)[C@@H](OS(=O)(=O)c4ccc(C)cc4)CC[C@@H]23)[C@H]1COS(=O)(=O)c1ccc(C)cc1"
> 100 µM

Query: TGI; subject: "COc1ccc(-c2nc(-c3ccccc3)c(-c3ccccc3)[nH]2)cc1OC1CCCC1"
> 100 µM

What value of TGI has been reported for the following molecule? "CCn1cnc(C[C@H](NC(=O)[C@@H](NC(=O)Nc2cc(C(F)(F)F)cc(C(F)(F)F)c2)C(C)C)C(=O)OC)c1"
3.19 µM

What does the record list as TGI for "O=C1NCc2ccccc2S(=O)(=O)n2cccc21" ?
> 100 µM

Sample "C[C@@H](c1ccccc1)N1CN(C(=O)OCc2ccccc2)C(C)(C)CC1=O" — what was its TGI?
> 100 µM

State the recorded TGI for this entry: "O=C(Nc1cccc(-n2cc(-c3ccncc3)c(-c3cc(O)cc(Cl)c3)n2)c1)Nc1ccc(Cl)c(C(F)(F)F)c1"
16.6 µM

What measured TGI goes with "COc1cccc(C2=C(c3c(C)n(C)c4ccccc34)C(=O)NC2=O)c1" ?
> 25 µM

Would you mind telling me what TGI value was observed for O=C1Nc2nc3ccccc3n2N=C2CCCC12 (stereo not given) ?
> 100 µM

Could you tell me which TGI is on file for "[N-]=[N+]=CC(=O)c1ccccc1C#CCCc1ccccc1" ?
> 100 µM

What value of TGI has been recorded for this entry: "CN1CCN(CCOc2ccc(-c3cnc4c(-c5ccc(C(F)(F)F)cc5)cnn4c3)cc2)CC1"
3.22 µM

For "O=C1C(N2CC2)=C(N2CC2)C(=O)C(N2CC2)=C1N1CC1" , what is its reported TGI?
4.32 µM

What does the record list as TGI for "CN1CCN(c2ncc3c(n2)sc2c(=O)n(-c4ccccc4)cnc23)CC1" ?
> 100 µM

TGI for "COc1ccc2c(c1)[n+]([O-])c(-c1ccc(OC)c(OC)c1)c(N)[n+]2[O-]" ?
> 100 µM

What value of TGI has been recorded for this entry: "CC(=O)Oc1ccc(-c2cc3ccccc3oc2=O)cc1"
> 100 µM

Need TGI of Cc1cccc(N(C(=O)Nc2ccc(Cl)c(Cl)c2)C2=NCC(C)S2)c1 (stereo not given) , thanks.
> 100 µM

I'd like to know its TGI. The molecule in question is "CCN(CC)/C(Sc1ccccc1)=C(\C(Cl)=C(Cl)Cl)[N+](=O)[O-]"
49.9 µM

# TGI lookup, item "CCn1c(-c2ccc(N=NNc3ccc(-c4n[nH]c(=S)n4CC)cc3)cc2)n[nH]c1=S"
9.53 µM

Given "Cc1ccc(N2C(=O)CS/C2=C(\C#N)c2nc3ccccc3[nH]2)cc1" , state its recorded TGI.
> 100 µM

Reported TGI for COCC(O)Cn1ccnc1[N+](=O)[O-] (stereo not given) : what is it?
> 100 µM

Value lookup for TGI; key = "N#C/C(c1nc2ccccc2[nH]1)=c1\s/c(=C/c2ccc(Cl)cc2)c(=O)n1-c1ccccc1"
> 100 µM

For "CC(C)(C)OC(=O)N1CCC(C(=O)O)CC1" , what is its reported TGI?
> 100 µM

Fill in: TGI of "CC(=O)NNc1nc(C)c(C(=O)/C=C/c2ccccc2Cl)s1" is ___
> 100 µM

Entry Cc1nn(C(=O)Cc2ccccc2)c2c1C(c1ccc(O)cc1O)SC(N)=N2 (stereo not given) has what TGI?
> 100 µM

Reported TGI for "O=S(=O)(Nc1ccc(Br)c(Cl)c1)c1ccc(-c2cnc(C3CC3)o2)cc1" : what is it?
16.2 µM

Recorded TGI for "O=C(N/C(=C/c1ccc(Cl)cc1Cl)c1nc2ccccc2s1)c1ccccc1" , please?
41.1 µM

Item under review: COC(=O)C1CN=CN1CCc1ccccc1 (stereo not given) . Reported TGI?
> 100 µM

For the molecule shown here, "C1=CC=C2NCCCCCCCNC3=CC=CC=CC3=NCCCCCCCN=C2C=C1" , give the reported TGI.
> 100 µM

Form field: reported TGI of "CC(=O)O[C@H]1C(=O)[C@@]2(C)[C@H]([C@H](OC(=O)c3ccccc3)[C@]3(O)C[C@H](OC(=O)[C@H](O)[C@@H](NC(=O)c4cccc(N=[N+]=[N-])c4)c4ccccc4)C(C)=C1C3(C)C)[C@]1(OC(C)=O)CO[C@@H]1C[C@@H]2O"
> 25 µM

I'd like to know its TGI. The molecule in question is "COc1cccc2c1Cc1cc(-c3ccccc3)[n+](C)n1-2"
> 100 µM

What TGI value was documented for this molecule, "CCN(Cc1ccc(F)cc1)c1ccc(CO)c(F)c1" ?
> 100 µM

What value of measured TGI is listed for "COc1cc2ccccc2oc1=O" ?
> 100 µM

Look up TGI: Cc1nn(C(=O)c2ccc(Cl)cc2)c2c1C(c1ccccc1[N+](=O)[O-])SC(N)=N2 (stereo not given)
> 10 µM

Requested read-out: TGI. Entry: "COc1ccc(/C=C/C(=O)c2ccc(O)c(CN3CCN(c4cc5c(cc4F)c(=O)c(C(=O)O)cn5C4CC4)CC3)c2)cc1"
> 100 µM

Record request: TGI value, item CCOC(=O)C(NC(=O)c1ccco1)(Nc1nc2ccc(OCC)cc2s1)C(F)(F)F (stereo not given)
> 100 µM

What value of TGI has been reported for the following molecule? COC1OC(CBr)C(OC(=O)c2ccccc2)C(O)C1Br (stereo not given)
> 100 µM

Report TGI for O=C1C2C3C=C4c5ccccc5N(c5ccccc5)C4(C2C(=O)N1c1ccc(Cl)cc1)[C@H]1C(=O)N(c2ccc(Cl)cc2)C(=O)[C@@H]31 (stereo not given in full) please.
> 100 µM

# input molecule: "CCOC(=O)Cn1c(=O)c2nc(SC)sc2n(CC)c1=S" ; wanted: its TGI
> 100 µM

Given the entry "NCCCCc1cc(O)c2c(c1O)C(=O)c1ccccc1C2=O" , report its measured TGI.
29.2 µM

Name the recorded TGI for "CCCc1cc(=O)[nH]c(-n2nc(C)cc2C)n1" .
> 100 µM

Suppose we examine the molecule "O=C1NC(=S)N/C1=C\c1ccc(Br)s1" ; what TGI value has been reported?
> 100 µM
